system: U2OS-mOrange2-Peroxisome; test: cell count relative to DMSO control (panel B, lysosome/peroxisome/lipid stain) (fraction of control); higher = more cells (less toxicity); details: 2.5 µM; treatment time: 24 h
METRIC: cell count
Give bare numbers.

Worked cases, cell count given:
• CCc1c2c(nc3ccc(OC(=O)N4CCC(N5CCCCC5)CC4)cc13)-c1cc3c(c(=O)n1C2)COC(=O)[C@]3(O)CC = 0.621
• CC(C)n1c(/C=C/C(O)CC(O)CC(=O)O)c(-c2ccc(F)cc2)c2ccccc21 (stereo unspecified) = 0.93
• CC(=O)O[C@H]1C(=O)[C@@]2(C)[C@H]([C@H](OC(=O)c3ccccc3)[C@]3(O)C[C@H](OC(=O)[C@H](O)[C@@H](NC(=O)c4ccccc4)c4ccccc4)C(C)=C1C3(C)C)[C@]1(OC(C)=O)CO[C@@H]1C[C@@H]2O = 0.787

Record cell count per entry; entries follow.
1. N.N.[Cl][Pt][Cl] [cisplatin]
2. CCCC[C@@H](C=O)NC(=O)[C@H](CC(C)C)NC(=O)[C@H](CC(C)C)NC(C)=O
3. CNCCCN1c2ccccc2CCc2ccccc21
4. CC[C@@]1([C@@H]2O[C@@H]([C@H]3O[C@@](O)(CO)[C@H](C)C[C@@H]3C)C[C@@H]2C)CC[C@H]([C@]2(C)CC[C@]3(C[C@H](O)[C@@H](C)[C@@H]([C@@H](C)[C@@H](OC)[C@H](C)C(=O)O)O3)O2)O1
5. CO[C@H]1C[C@@H]2CC[C@@H](C)[C@@](O)(O2)C(=O)C(=O)N2CCCC[C@H]2C(=O)O[C@H]([C@H](C)C[C@@H]2CC[C@@H](O)[C@H](OC)C2)CC(=O)[C@H](C)/C=C(\C)[C@@H](O)[C@@H](OC)C(=O)[C@H](C)C[C@H](C)/C=C/C=C/C=C/1C
6. Cc1c(N)nc([C@H](CC(N)=O)NC[C@H](N)C(N)=O)nc1C(=O)N[C@H](C(=O)N[C@H](C)[C@@H](O)[C@H](C)C(=O)N[C@H](C(=O)NCCc1nc(-c2nc(C(=O)NCCC[S+](C)C)cs2)cs1)[C@@H](C)O)[C@@H](O[C@@H]1O[C@@H](CO)[C@@H](O)[C@H](O)[C@@H]1O[C@H]1O[C@H](CO)[C@@H](O)[C@H](OC(N)=O)[C@@H]1O)c1c[nH]cn1
7. COc1ccc(C2CNC(=O)C2)cc1OC1CCCC1 (stereo unspecified)

Result:
0.967
0.608
0.571
0.617
0.521
1.26
0.96

Request: Value lookup for cell count; key = CCCC[C@H]1C(=O)O[C@H](C)[C@H](NC(=O)c2cccc(NC=O)c2O)C(=O)O[C@@H](C)[C@@H]1OC(=O)CC(C)C [antimycin-a]
Result: 0.724
